These data points were gathered from patent US12371419B2.

Tested on: Human CTPS1 versus CTPS2
test.description: RapidFire/MS-based enzyme selectivity assay, human CTPS1 versus CTPS2
Assay type: biochemical
condition.info: calculated from RF/MS IC50 values for human CTPS1 and CTPS2
property.name: Selectivity (fold selectivity between CTPS1 and CTPS2)

Known results for compounds:
{"compound": "CCOc1cncc(-c2ccc(NC(=O)C(F)(CC)c3ccnc(NS(=O)(=O)C4CC4)n3)nc2)n1 (single isomer, unassigned) [P114]", "measured.value": "+++ (>60 fold (+++))"}
{"compound": "CCOc1cncc(-c2ccc(NC(=O)C(F)(CC)c3ccnc(NS(=O)(=O)C4CC4)n3)nc2)n1 (single isomer, unassigned) [P113]", "measured.value": "+ (2-30 fold (+))"}
{"compound": "CCOc1cncc(-c2ccc(NC(=O)C(CCOC)c3ccnc(NS(=O)(=O)C4CC4)n3)nc2)n1 (stereo not drawn) [P145]", "measured.value": "+++ (>60 fold (+++))"}
{"compound": "CCOc1cncc(-c2ccc(NC(=O)C3(c4cncc(NS(=O)(=O)C5CC5)n4)CCOCC3)nc2)n1 [P197]", "measured.value": "+++ (>60 fold (+++))"}
{"compound": "CCOc1cncc(-c2ccc(NC(=O)C3(c4ccnc(NS(=O)(=O)C5CC5)n4)CCOCC3)nc2)n1 [P115]", "measured.value": "+++ (>60 fold (+++))"}

Lab book: Selectivity (fold selectivity between CTPS1 and CTPS2) of CCOc1cncc(-c2ccc(NC(=O)C3(c4ccnc(NS(=O)(=O)C5CC5)n4)CCOCC3)c(F)c2)n1 [P143] noted as +++ (>60 fold (+++))

Summary for this compound, CCOc1cncc(-c2ccc(NC(=O)C3(c4ccnc(NS(=O)(=O)C5CC5)n4)CCCC3)nc2)n1 [P136] : Selectivity (fold selectivity between CTPS1 and CTPS2) is +++ (>60 fold (+++))

Selectivity (fold selectivity between CTPS1 and CTPS2) for CCOc1cncc(-c2ccc(NC(=O)C(F)(CC)c3cncc(NS(=O)(=O)C4CC4)n3)nc2)n1 (single isomer, unassigned) [P207] is + (2-30 fold (+))

Summary for this compound, CCOc1cncc(-c2ccc(NC(=O)C(F)(CC)c3cncc(NS(=O)(=O)C4CC4)n3)nc2)n1 (single isomer, unassigned) [P206] : Selectivity (fold selectivity between CTPS1 and CTPS2) is +++ (>60 fold (+++))
